src = PubChem BioAssay (EPA / NIEHS)

Read-out: Tumor necrosis factor (Homo sapiens)
Method: BSK_BT_xTNFa: BioMAP Diversity Plus: BT Assay for Tumor necrosis factor alpha (TNF-alpha) Biomarker Activity (AID 2284230)
Applied Conditions: primary human B cells with PBMC
The source made the active and inactive calls. The calls were made as follows: active = hit-call score of the fitted dose curve at least 0.9, where 1 is the maximum; inactive = score below 0.9.
Would you mind answering with one of these outcomes? active, inactive

{"columns": ["Compound", "Group"],
 "data": [
  ["CCCCCCCCCCCCCCCCCC(=O)OCC(CC)CCCC (configuration not stated)", "inactive"]
]}

Record request — test call for "CC(=O)Nc1ccccc1O"
inactive

Returns: the outcome recorded for "c1ccc2c(c1)c1cccc3ccc4cccc2c4c31" in this assay.
inactive

====

Method: ATG_EGR_CIS: Attagene CIS-FACTORIAL HepG2 Assay for human Early Growth Response 1 (EGR1) (AID 2282938)
Applied Conditions: HepG2 Attagene CIS-FACTORIAL EGR reporter mRNA; actives raise or lower the signal
The source made the active and inactive calls. The calls were made as follows: active = hit-call score of the fitted dose curve at least 0.9, where 1 is the maximum; inactive = score below 0.9.
Hi there, use one of these labels in your reply, thanks! active, inactive

Answered examples (5):
{"columns": ["Molecule", "Group"],
 "data": [
  ["Cc1ccc(C=O)s1", "inactive"],
  ["CCCCC(CC)COCCC#N (stereo not given)", "inactive"],
  ["CN(C)CCOCCN(C)C", "inactive"],
  ["C=C(C)[C@@H]1CCC2=CC(=O)C[C@@H](C)[C@]2(C)C1", "inactive"],
  ["C=CC(=O)OCCOCCOCC", "active"]
]}

Dear colleague, could you share the recorded outcome for "CCCCCCOC(=O)CC" when you have a moment?
inactive

What call does the record list for "CC(C)=CCC[C@H](C)CC=O" ?
inactive
